Recorded measurements of half-life, one per entry
# run_description: Half life in Sprague-Dawley rat at 0.5 mg/kg, iv and 2 mg/kg, po
# Assay type: ADME, organism-based
# experimental_conditions: in vivo
Reply numerically in h, unit not repeated.

Recorded results for 2 compounds are shown here.
half-life reported for this compound `O=C(Nc1ccc(-n2nccn2)nc1)N1CCC2(CC1)CN(Cc1cccc(Oc3ccc(Cl)cc3)c1)C2` : 3.35

Field half-life (entry `O=C(Nc1cccnc1)N1CCC2(CCN(Cc3cccc(Oc4ccc(Cl)cc4)c3)CC2)CC1` ) reads 5.69

Further cases:
For reference, reported half-life for `O=C(Nc1cccnc1)N1CCC2(CC1)CN(Cc1cccc(Oc3ccc(Cl)cc3)c1)C2` stands at 1.68

// `O=C(Nc1ccc(-n2nccn2)nc1)N1CC2(CCN(Cc3cccc(Oc4ccc(Cl)cc4)c3)CC2)C1` : half-life value = 1.81

----------
# run_description: Oral bioavailability in Sprague-Dawley rat at 2 mg/kg
# Type: ADME, organism-based
# experimental_conditions: in vivo
Measured bioavailability, listed per entry.
Answer in %, number only, no unit symbol.

Kindly note the recorded bioavailability for `O=C(Nc1ccc(-n2nccn2)nc1)N1CC2(CCN(Cc3cccc(Oc4ccc(Cl)cc4)c3)CC2)C1` , which is 71

// sample `O=C(Nc1cccnc1)N1CCC2(CC1)CN(Cc1cccc(Oc3ccc(Cl)cc3)c1)C2` , its bioavailability was 32

Briefly, bioavailability measured for `O=C(Nc1ccc(-n2nccn2)nc1)N1CCC2(CC1)CN(Cc1cccc(Oc3ccc(Cl)cc3)c1)C2` : 62

Sample `O=C(Nc1cccnc1)N1CCC2(CCN(Cc3cccc(Oc4ccc(Cl)cc4)c3)CC2)CC1` ; bioavailability observed: 69

----------
# run_description: Volume of distribution at steady state in Sprague-Dawley rat at 0.5 mg/kg, iv and 2 mg/kg, po
# Type: ADME, organism-based
# experimental_conditions: in vivo, read-out: Vdss
Below: a set of entries, each annotated with reported Vd.
Number only, in L/kg; omit the unit.

Take a look at these entries with their results.
Consider `O=C(Nc1ccc(-n2nccn2)nc1)N1CC2(CCN(Cc3cccc(Oc4ccc(Cl)cc4)c3)CC2)C1` . Its measured Vd is 2.21

Note to self: Vd recorded for `O=C(Nc1cccnc1)N1CCC2(CCN(Cc3cccc(Oc4ccc(Cl)cc4)c3)CC2)CC1` was 18

`O=C(Nc1ccc(-n2nccn2)nc1)N1CCC2(CC1)CN(Cc1cccc(Oc3ccc(Cl)cc3)c1)C2` has a reported Vd of 11.3

# next compound below
The compound `O=C(Nc1cccnc1)N1CCC2(CC1)CN(Cc1cccc(Oc3ccc(Cl)cc3)c1)C2` showed Vd equal to 21.8

----------
# run_description: Clearance in Sprague-Dawley rat at 0.5 mg/kg, iv and 2 mg/kg, po
# Type: ADME, organism-based
# experimental_conditions: in vivo
Each item that follows carries a reported clearance.
Show the value, then the unit it is measured in.

Please fill in: clearance reported for `O=C(Nc1ccc(-n2nccn2)nc1)N1CC2(CCN(Cc3cccc(Oc4ccc(Cl)cc4)c3)CC2)C1` = 16.7 mL/min/kg

More entries:
The value of clearance measured for the compound `O=C(Nc1cccnc1)N1CCC2(CCN(Cc3cccc(Oc4ccc(Cl)cc4)c3)CC2)CC1` turned out to be 37.7 mL/min/kg

The value of clearance measured for the compound `O=C(Nc1ccc(-n2nccn2)nc1)N1CCC2(CC1)CN(Cc1cccc(Oc3ccc(Cl)cc3)c1)C2` turned out to be 42.5 mL/min/kg

GET /value?item= `O=C(Nc1cccnc1)N1CCC2(CC1)CN(Cc1cccc(Oc3ccc(Cl)cc3)c1)C2` &field=clearance returns 173 mL/min/kg
